We begin with IC50 values for UniProt:Q12884, as collected from the published literature.
# Measured target: UniProt:Q12884
# Sequence (Q12884 whole entry): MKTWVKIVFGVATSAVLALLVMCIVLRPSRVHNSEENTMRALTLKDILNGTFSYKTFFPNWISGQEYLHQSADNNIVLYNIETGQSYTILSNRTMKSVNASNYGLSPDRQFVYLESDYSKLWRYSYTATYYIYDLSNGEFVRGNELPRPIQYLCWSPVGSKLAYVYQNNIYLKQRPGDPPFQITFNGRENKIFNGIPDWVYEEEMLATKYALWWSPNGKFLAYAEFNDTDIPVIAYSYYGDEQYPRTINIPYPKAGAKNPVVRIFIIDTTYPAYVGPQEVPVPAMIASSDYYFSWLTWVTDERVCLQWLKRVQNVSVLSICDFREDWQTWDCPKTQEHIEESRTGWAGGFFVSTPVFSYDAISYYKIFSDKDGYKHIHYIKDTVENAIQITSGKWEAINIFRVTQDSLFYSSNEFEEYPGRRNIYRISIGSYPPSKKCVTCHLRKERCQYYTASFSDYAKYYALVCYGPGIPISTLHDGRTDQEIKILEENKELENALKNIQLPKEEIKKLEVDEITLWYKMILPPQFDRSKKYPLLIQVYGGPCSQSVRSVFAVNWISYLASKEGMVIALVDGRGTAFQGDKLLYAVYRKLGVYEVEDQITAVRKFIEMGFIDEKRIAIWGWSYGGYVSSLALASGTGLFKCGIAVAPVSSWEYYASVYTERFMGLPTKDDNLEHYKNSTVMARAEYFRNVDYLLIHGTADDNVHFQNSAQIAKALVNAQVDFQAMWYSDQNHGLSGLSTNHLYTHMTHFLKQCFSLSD

CCN([C@H]1CC[C@H]([C@H](N)Cc2cc(F)ccc2F)CC1)S(C)(=O)=O = > 35 µM
N#C[C@@H]1CC(F)(F)CN1C(=O)CNC(=O)c1csc(Cc2ccccc2-c2ccc3ccccc3c2)n1 = 0.004 µM
Cc1nc(CN2C(=O)c3c(nc(N4CCC[C@@H](N)C4)n3Cc3ccccc3C#N)N3CCN=C23)nc2ccccc12 = 15.3 µM
N[C@H](Cc1cc(F)ccc1F)[C@H]1CC[C@@H](N2CCCCC2)CC1 = > 35 µM
COc1ccc(NC(=O)CC(C)(C)NCC(=O)N2CCC[C@H]2C#N)cc1OC = > 50 µM

May I ask what IC50 has been recorded for "N#C[C@@H]1CC(F)(F)CN1C(=O)CNC(=O)c1csc(Cc2ccccc2Br)n1" ? 0.05 µM

May I ask what IC50 has been recorded for "COc1ccc([C@H]2C[C@@H]2NC(=O)CC(C)(C)NCC(=O)N2C[C@@H](F)C[C@H]2C#N)cc1" ? > 20 µM

May I ask what IC50 has been recorded for "CCN(Cc1ccccc1)[C@H]1CC[C@H]([C@H](N)Cc2cc(F)ccc2F)CC1" ? > 35 µM

May I ask what IC50 has been recorded for "N#C[C@@H]1CC(F)(F)CN1C(=O)CNC(=O)c1csc(-c2ccc(Cl)cc2)n1" ? 0.148 µM

----------
We begin with pIC50 values for Prolyl endopeptidase FAP (Homo sapiens, UniProt Q12884), as collected from the published literature.
pIC50: −log10 of the molar value.

May I ask what pIC50 has been recorded for "N#C[C@@H]1CC(F)(F)CN1C(=O)CNC(=O)c1csc(Cc2cc(Cl)ccc2Cl)n1" ? 7.26

May I ask what pIC50 has been recorded for N[C@@H](CC(=O)N1CCn2c(nnc2C(F)(F)F)C1Cc1ccccc1C(F)(F)F)Cc1cc(F)c(F)cc1F (stereo in doubt; 44a) ? < 5.00

May I ask what pIC50 has been recorded for "CC(=O)Nc1nc(C)c(S(=O)(=O)N(C)[C@H]2CC[C@H]([C@H](N)Cc3cc(F)ccc3F)CC2)s1" ? < 4.46

May I ask what pIC50 has been recorded for "CC(=O)N(C)[C@H]1CC[C@@H]([C@H](N)Cc2cc(F)ccc2F)CC1" ? < 4.46

May I ask what pIC50 has been recorded for C[S+]([O-])c1ccc(Cc2nc(C(=O)NCC(=O)N3CC(F)(F)C[C@H]3C#N)cs2)cc1 (stereo partly drawn) ? 6.41

May I ask what pIC50 has been recorded for "CC(C)(CC(=O)NCc1ccccn1)NCC(=O)N1CCC[C@H]1C#N" ? < 4.70

May I ask what pIC50 has been recorded for "CC(C)(CC(=O)N[C@H]1C[C@@H]1c1ccc(Cl)cc1)NCC(=O)N1CCC[C@H]1C#N" ? < 4.70

May I ask what pIC50 has been recorded for Cl.N[C@@H](CC(=O)N1CCn2c(nnc2C(F)(F)F)C1C(O)c1ccc(F)cc1)Cc1cc(F)c(F)cc1F (stereo in doubt; 47b) ? < 5.00

----------
# Measured target: Prolyl endopeptidase FAP (Homo sapiens, UniProt Q12884)
# Sequence (Q12884 whole entry): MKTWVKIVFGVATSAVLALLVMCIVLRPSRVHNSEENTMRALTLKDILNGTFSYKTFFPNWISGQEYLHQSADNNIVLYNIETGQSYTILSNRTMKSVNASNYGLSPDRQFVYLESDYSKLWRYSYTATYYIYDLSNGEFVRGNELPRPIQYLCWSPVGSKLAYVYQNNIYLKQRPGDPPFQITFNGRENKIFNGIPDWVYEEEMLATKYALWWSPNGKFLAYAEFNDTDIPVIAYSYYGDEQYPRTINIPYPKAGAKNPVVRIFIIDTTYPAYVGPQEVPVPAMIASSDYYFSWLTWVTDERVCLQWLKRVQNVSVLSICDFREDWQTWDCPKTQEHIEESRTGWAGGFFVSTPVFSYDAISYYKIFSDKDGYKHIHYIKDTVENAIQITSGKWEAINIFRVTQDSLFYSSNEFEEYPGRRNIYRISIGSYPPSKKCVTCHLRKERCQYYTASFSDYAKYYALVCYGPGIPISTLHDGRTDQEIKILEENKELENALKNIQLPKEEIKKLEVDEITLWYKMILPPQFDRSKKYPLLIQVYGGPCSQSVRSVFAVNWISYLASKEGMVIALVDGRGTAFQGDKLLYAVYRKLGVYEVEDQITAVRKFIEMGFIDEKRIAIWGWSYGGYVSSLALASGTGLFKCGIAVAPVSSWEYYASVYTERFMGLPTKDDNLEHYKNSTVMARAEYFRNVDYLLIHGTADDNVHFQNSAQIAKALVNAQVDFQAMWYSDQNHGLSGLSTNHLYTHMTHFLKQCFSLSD
We begin with IC50 values for Prolyl endopeptidase FAP (Homo sapiens, UniProt Q12884), as collected from the published literature.

CC#CCn1c(N2CCC[C@@H](N)C2)nc2c1C(=O)N(Cc1cccc(C#N)c1)C1=NCCN12 = 78.5 µM
CC(C)(CC(=O)NCc1ccccc1)NCC(=O)N1CCC[C@H]1C#N = > 20 µM
N[C@H](C(=O)N1CCSC1)[C@H]1CC[C@H](NC(=O)c2ccc(OC(F)(F)F)cc2)CC1 = > 35 µM

Item: "C[C@H]1CN(C(=O)C[C@H](N)Cc2cc(F)c(F)cc2F)Cc2ccc(C(F)(F)F)n21" Test system: Prolyl endopeptidase FAP (Homo sapiens, UniProt Q12884) Read-out: IC50 Value: ? > 10 µM

Item: "CN(Cc1cccc(C#N)c1)[C@H]1CC[C@H]([C@H](N)Cc2cc(F)ccc2F)CC1" Test system: Prolyl endopeptidase FAP (Homo sapiens, UniProt Q12884) Read-out: IC50 Value: ? > 35 µM

----------
We begin with IC50 values for Prolyl endopeptidase FAP (Homo sapiens, UniProt Q12884), as collected from the published literature.
# Measured target: Prolyl endopeptidase FAP (Homo sapiens, UniProt Q12884)
# Sequence (Q12884 whole entry): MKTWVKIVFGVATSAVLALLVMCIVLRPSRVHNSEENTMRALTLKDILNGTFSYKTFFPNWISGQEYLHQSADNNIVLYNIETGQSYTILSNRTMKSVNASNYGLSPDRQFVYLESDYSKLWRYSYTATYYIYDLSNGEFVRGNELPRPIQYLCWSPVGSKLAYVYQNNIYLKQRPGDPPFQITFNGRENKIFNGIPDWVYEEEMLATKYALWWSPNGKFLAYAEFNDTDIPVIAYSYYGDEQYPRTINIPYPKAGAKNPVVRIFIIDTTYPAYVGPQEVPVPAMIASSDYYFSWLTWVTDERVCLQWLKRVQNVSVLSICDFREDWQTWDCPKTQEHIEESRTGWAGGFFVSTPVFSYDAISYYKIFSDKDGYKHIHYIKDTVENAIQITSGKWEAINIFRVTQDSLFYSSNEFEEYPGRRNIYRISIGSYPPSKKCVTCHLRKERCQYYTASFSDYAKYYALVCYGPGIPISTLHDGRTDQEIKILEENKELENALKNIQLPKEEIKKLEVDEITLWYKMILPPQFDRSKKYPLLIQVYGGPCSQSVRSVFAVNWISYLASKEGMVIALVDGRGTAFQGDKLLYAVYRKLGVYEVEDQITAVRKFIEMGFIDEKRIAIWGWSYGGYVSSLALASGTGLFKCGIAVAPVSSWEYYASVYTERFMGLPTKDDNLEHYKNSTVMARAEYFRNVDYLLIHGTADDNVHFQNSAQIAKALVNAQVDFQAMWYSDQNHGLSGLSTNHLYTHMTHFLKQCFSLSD

N#Cc1ccc(-c2ccc(Cc3nc(C(=O)NCC(=O)N4CC(F)(F)C[C@H]4C#N)cs3)cc2)cc1 = 0.012 µM
CC(C)[C@@H](Oc1ccc(CNC(=O)[C@@H]2CCCN2C(=O)C(N)C2CCCCC2)cc1)C(=O)O (some centres undefined) = > 100 µM
COc1ncc(N2CCC([C@H](N)Cc3cc(F)ccc3F)CC2)cn1 = > 35 µM

# ---- query compound ----
May I ask what IC50 has been recorded for CCC1c2nnc(C(F)(F)F)n2CCN1C(=O)C[C@H](N)Cc1cc(F)c(F)cc1F (stereo in doubt; 38b) ? > 10 µM
